Cited source: ChEMBL document CHEMBL4819061

- Test system: HT-1080
- assay_procedure: Induction of cell cycle arrest in human HT1080 cells assessed as accumulation at G2/M phase at 2 uM incubated for 24 hrs by RNase/PI staining based flow cytometric analysis (reference value: 47.55 %)
- Type: functional
quantity_kind: Activity (%)
# unit: % | format: bare number

Ask: Returns the measured Activity for the input molecule. Input: `CN1CCN(c2ccc(NC(=N)c3cc4c(-c5ccccc5)n[nH]c4c(NC4CCCCC4)n3)cc2)CC1`
Reply: 41.85

Ask: Please answer likewise for `COc1ccc(Cn2nc(-c3ccccc3)c3cc(C(=N)Nc4ccc(N5CCN(C)CC5)cc4)nc(N4CCOCC4)c32)cc1`
Reply: 31.48

Ask: Queued: `COc1ccc(Cn2nc(-c3ccccc3)c3cc(C(=N)Nc4ccc(N5CCN(C)CC5)cc4)ncc32)cc1`
Reply: 35.98

Ask: What do you have for `COc1ccc(Cn2cc3cc(C(=N)Nc4ccccc4)ncc3n2)cc1` ?
Reply: 36.07

Ask: Similarly, `COc1ccc(Cn2nc(-c3ccccc3)c3cc(C(=N)Nc4ccc(N5CCN(C)CC5)cc4)nc(NC4CCCCC4)c32)cc1` ?
Reply: 48.57

Ask: Do the same for `N=C(Nc1ccccc1)c1cc2c(-c3ccccc3)n[nH]c2c(NC2CCCCC2)n1` please
Reply: 43.29

Ask: Try this molecule next: `COc1ccc(Cn2nc(-c3ccccc3)c3cc(C(=N)Nc4ccc(N5CCN(C)CC5)cc4)nc(Nc4cc(OC)c(OC)c(OC)c4)c32)cc1`
Reply: 9.29

====

- Tested on: HT-1080
- assay_procedure: Cytotoxicity against human HT-1080 cells assessed as reduction in cell viability incubated for 72 hrs by MTT assay
- Format: functional, cell-based
- setup_conditions: HT-1080, 72 h
Where a name gives a salt, the structure may show the parent alone.
// boundary case: IC50 equal to 7 µM maps to f; strictly smaller maps to t

Ask: In plain terms, does `COc1ccc(Cn2cc3cc(C(=N)Nc4ccc(N5CCN(C)CC5)cc4)ncc3n2)cc1` come in under 7 µM for IC50?
Reply: t

Ask: Again, but for COc1cccc2c1C(=O)c1c(O)c3c(c(O)c1C2=O)C[C@@](O)(C(=O)CO)C[C@@H]3O[C@H]1C[C@H](N)[C@H](O)[C@H](C)O1 [DOXORUBICIN HYDROCHLORIDE]
Reply: t

Ask: Subsequent entry: `COc1cc(Nc2nc(C(=N)Nc3cccc(C(F)(F)F)c3)cc3c(-c4ccccc4)n[nH]c23)cc(OC)c1OC`
Reply: t

Ask: Likewise for `COc1ccc(Cn2ncc3cc(C(=N)Nc4ccccc4)ncc32)cc1` ?
Reply: f

Ask: What about this molecule? `CN1CCN(c2ccc(NC(=N)c3cc4c(-c5ccccc5)n[nH]c4c(NC4CCCCC4)n3)cc2)CC1`
Reply: t

Ask: Follow-up entry: `COc1ccc(Cn2nc(-c3ccccc3)c3cc(C(=N)Nc4cccc(C(F)(F)F)c4)ncc32)cc1`
Reply: f

Ask: Next molecule: `CN1CCN(c2ccc(NC(=N)c3cc4c(-c5ccccc5)n[nH]c4cn3)cc2)CC1`
Reply: f

Ask: Another molecule to look at: `N=C(Nc1cccc(C(F)(F)F)c1)c1cc2c(-c3ccccc3)n[nH]c2c(NC2CCCCC2)n1`
Reply: f

====

- Tested on: HT-1080
- assay_procedure: Cytotoxicity against human HT-1080 cells assessed as reduction in cell viability incubated for 72 hrs by MTT assay
- Type: functional, cell-based
- setup_conditions: HT-1080, 72 h
Can you tell me pIC50 for the items I'm about to list?
FYI, pIC50 means -log10 of a concentration in mol per litre.

Ask: // lookup pIC50 | system=HT-1080 | key= `COc1ccc(Cn2nc(-c3ccccc3)c3cc(C(=N)Nc4ccc(N5CCN(C)CC5)cc4)nc(NC4CCCCC4)c32)cc1`
Reply: 6.19

Ask: What about `CN1CCN(c2ccc(NC(=N)c3cc4cnn(C)c4cn3)cc2)CC1` ?
Reply: 4.62

Ask: Another molecule to look at: `Cn1nc(-c2ccccc2)c2cc(C(=N)Nc3ccccc3)ncc21`
Reply: 4.76

Ask: Next up: `COc1ccc(Cn2nc(-c3ccccc3)c3cc(C(=N)Nc4ccc(N5CCN(C)CC5)cc4)nc(Nc4cc(OC)c(OC)c(OC)c4)c32)cc1`
Reply: 5.92

Ask: Another molecule to check: `N=C(Nc1cccc(C(F)(F)F)c1)c1cc2c(-c3ccccc3)n[nH]c2cn1`
Reply: 4.61

Ask: Now give it for `COc1ccc(Cn2nc(-c3ccccc3)c3cc(C(=N)Nc4ccccc4)nc(Nc4cc(OC)c(OC)c(OC)c4)c32)cc1` too.
Reply: 4.95

Ask: Moving on to `COc1ccc(Cn2nc(-c3ccccc3)c3cc(C(=N)Nc4ccc(N5CCN(C)CC5)cc4)ncc32)cc1`
Reply: 5.96

Ask: Likewise for `N=C(Nc1ccccc1)c1cc2c(-c3ccccc3)n[nH]c2c(NC2CCCCC2)n1` ?
Reply: 6.07

Ask: Param item: `N=C(Nc1cccc(C(F)(F)F)c1)c1cc2c(-c3ccccc3)n[nH]c2c(N2CCOCC2)n1`
Reply: 5.17

Ask: # repeat for `CN1CCN(c2ccc(NC(=N)c3cc4c(-c5ccccc5)nn(C)c4cn3)cc2)CC1`
Reply: 5.85

Ask: Input `COc1ccc(Cn2ncc3cc(C(=N)Nc4ccc(N5CCN(C)CC5)cc4)ncc32)cc1`
Reply: 5.28

Ask: Moving on to `CN1CCN(c2ccc(NC(=N)c3cc4cn(C)nc4cn3)cc2)CC1`
Reply: 4.68

Ask: `COc1ccc(Cn2ncc3cc(C(=N)Nc4cccc(C(F)(F)F)c4)ncc32)cc1` ?
Reply: 4.60

Ask: Then what about the molecule `N=C(Nc1ccccc1)c1cc2c(-c3ccccc3)n[nH]c2c(N2CCOCC2)n1` ?
Reply: 5.32

Ask: What do you have for `COc1cc(Nc2nc(C(=N)Nc3ccc(N4CCN(C)CC4)cc3)cc3c(-c4ccccc4)n[nH]c23)cc(OC)c1OC` ?
Reply: 5.47

Ask: Entry to check: `CN1CCN(c2ccc(NC(=N)c3cc4cn[nH]c4cn3)cc2)CC1`
Reply: 4.50

Ask: Param item: `COc1ccc(Cn2nc(-c3ccccc3)c3cc(C(=N)Nc4ccccc4)ncc32)cc1`
Reply: 5.33

Ask: Lookup `N=C(Nc1cccc(C(F)(F)F)c1)c1cc2cn[nH]c2cn1`
Reply: 4.44

Ask: Now the molecule `COc1cc(Nc2nc(C(=N)Nc3ccccc3)cc3c(-c4ccccc4)n[nH]c23)cc(OC)c1OC`
Reply: 5.41
